Taken from paper PMC7937321.

As a worked illustration, we turn to TK mutation assay, With S9 data collected for human lymphoblastoid TK6 cells, thymidine kinase gene.

Use these answered entries as a reference point.
| compound | system-name | TK mutation assay, With S9 |
| --- | --- | --- |
| O=[N+]([O-])c1cc(N(CCO)CCO)ccc1NCCO [HC Blue No.2] | human lymphoblastoid TK6 cells, thymidine kinase gene | Neg |
| Cc1cc(N)ccc1N [2,5-Diaminotoluene] | human lymphoblastoid TK6 cells, thymidine kinase gene | Neg |
| CC(=O)Nc1ccc(C(=O)CCl)cc1 [4-(Chloroacetyl)-acetanilide, 4-(Chloroacetyl)acetanilide] | human lymphoblastoid TK6 cells, thymidine kinase gene | Neg |
| IC(I)I [Iodoform] | human lymphoblastoid TK6 cells, thymidine kinase gene | Neg |

Turning now to a further record.
Record Oc1cccc2cccnc12 [8-Hydroxyquinoline] : what is its TK mutation assay, With S9 with human lymphoblastoid TK6 cells, thymidine kinase gene?
Pos

----------
Test: Cytotoxicity in the TK6 assay (CE, RS, RSG, RTG)
Settings: human, TK6 cells without S9 mix, CE0 (%), cell viability on Day 0, 24 h treatment, -S9 mix, 1821.4 μg/mL
observation-type: viability at 24 h, 1821.4 μg/mL

Param item = Nc1cc([N+](=O)[O-])ccc1C(=O)O [4-Nitroanthranilic acid] ; retrieve measured viability at 24 h, 1821.4 μg/mL.
24.4%

----------
Experiment: Cytotoxicity in the TK6 assay (CE, RS, RSG, RTG)
Conditions: human, TK6 cells without S9 mix, CE3 (%), cell viability on Day 3, Short treatment, -S9 mix, dose 444.70 μg/mL
observation-type: viability at 4 h, 444.7 μg/mL (%)
Answer format: numeric, % implied, no suffix.

Param item = `Nc1cc([N+](=O)[O-])ccc1C(=O)O` ; retrieve measured viability at 4 h, 444.7 μg/mL.
105

----------
Experiment: Cytotoxicity in the TK6 assay (CE, RS, RSG, RTG)
Details: human, TK6 cells without S9 mix, CE0 (%), cell viability on Day 0, Short treatment, -S9 mix, dose 711.5 μg/mL
observation-type: viability at 4 h, 711.5 μg/mL (%)
Answer format: numeric, % implied, no suffix.

Param item = Nc1cc([N+](=O)[O-])ccc1C(=O)O [4-Nitroanthranilic acid] ; retrieve measured viability at 4 h, 711.5 μg/mL.
74.8

----------
Assay: Cytotoxicity in the TK6 assay (CE, RS, RSG, RTG)
Settings: human, TK6 cells without S9 mix, CE0 (%), cell viability on Day 0, Short treatment, -S9 mix, dose 444.70 μg/mL
observation-type: viability at 4 h, 444.7 μg/mL (%)
Answer format: numeric, % implied, no suffix.

Param item = `Nc1cc([N+](=O)[O-])ccc1C(=O)O` ; retrieve measured viability at 4 h, 444.7 μg/mL.
77

----------
Assay: Cytotoxicity in the TK6 assay (CE, RS, RSG, RTG)
Details: human, TK6 cells with rat liver S9 mix, CE3 (%), cell viability on Day 3, Short treatment, +S9 mix, dose 712 μg/mL
observation-type: viability at 4 h, 712 μg/mL (%)
Answer format: numeric, % implied, no suffix.

Param item = Nc1cc([N+](=O)[O-])ccc1C(=O)O [4-Nitroanthranilic acid] ; retrieve measured viability at 4 h, 712 μg/mL.
98

----------
As a worked illustration, we turn to TK mutation assay, Long term data collected for human lymphoblastoid TK6 cells, thymidine kinase gene.
observation-type: TK mutation assay, Long term

| compound | system-name | meas-value |
| --- | --- | --- |
| IC(I)I [Iodoform] | human lymphoblastoid TK6 cells, thymidine kinase gene | Neg |
| O=[N+]([O-])c1cc(N(CCO)CCO)ccc1NCCO | human lymphoblastoid TK6 cells, thymidine kinase gene | Pos |
| CC(=O)Nc1ccc(C(=O)CCl)cc1 [4-(Chloroacetyl)-acetanilide, 4-(Chloroacetyl)acetanilide] | human lymphoblastoid TK6 cells, thymidine kinase gene | Pos |
| Cc1cc(N)ccc1N | human lymphoblastoid TK6 cells, thymidine kinase gene | Neg |
